Tested on: NCI-H661
Assay: Antiproliferative activity against human NCI-H661 cells after 48 hrs by XTT assay
Format: functional, cell-based
Conditions: NCI-H661, 48 h
Endpoint: pIC50
# log scale: pIC50 equals minus log10 of the concentration in mol/L

[ask] // fetch pIC50 for CC(/C=C/C(=O)NO)=C\[C@@H](C)C(=O)c1ccc(N(C)C)cc1 ; system: NCI-H661
[reply] 7.00

Recorded values, source ChEMBL document CHEMBL1138493.
